Target: HDAC4 (Homo sapiens, UniProt P56524)
Sequence (P56524 whole entry, species assumed): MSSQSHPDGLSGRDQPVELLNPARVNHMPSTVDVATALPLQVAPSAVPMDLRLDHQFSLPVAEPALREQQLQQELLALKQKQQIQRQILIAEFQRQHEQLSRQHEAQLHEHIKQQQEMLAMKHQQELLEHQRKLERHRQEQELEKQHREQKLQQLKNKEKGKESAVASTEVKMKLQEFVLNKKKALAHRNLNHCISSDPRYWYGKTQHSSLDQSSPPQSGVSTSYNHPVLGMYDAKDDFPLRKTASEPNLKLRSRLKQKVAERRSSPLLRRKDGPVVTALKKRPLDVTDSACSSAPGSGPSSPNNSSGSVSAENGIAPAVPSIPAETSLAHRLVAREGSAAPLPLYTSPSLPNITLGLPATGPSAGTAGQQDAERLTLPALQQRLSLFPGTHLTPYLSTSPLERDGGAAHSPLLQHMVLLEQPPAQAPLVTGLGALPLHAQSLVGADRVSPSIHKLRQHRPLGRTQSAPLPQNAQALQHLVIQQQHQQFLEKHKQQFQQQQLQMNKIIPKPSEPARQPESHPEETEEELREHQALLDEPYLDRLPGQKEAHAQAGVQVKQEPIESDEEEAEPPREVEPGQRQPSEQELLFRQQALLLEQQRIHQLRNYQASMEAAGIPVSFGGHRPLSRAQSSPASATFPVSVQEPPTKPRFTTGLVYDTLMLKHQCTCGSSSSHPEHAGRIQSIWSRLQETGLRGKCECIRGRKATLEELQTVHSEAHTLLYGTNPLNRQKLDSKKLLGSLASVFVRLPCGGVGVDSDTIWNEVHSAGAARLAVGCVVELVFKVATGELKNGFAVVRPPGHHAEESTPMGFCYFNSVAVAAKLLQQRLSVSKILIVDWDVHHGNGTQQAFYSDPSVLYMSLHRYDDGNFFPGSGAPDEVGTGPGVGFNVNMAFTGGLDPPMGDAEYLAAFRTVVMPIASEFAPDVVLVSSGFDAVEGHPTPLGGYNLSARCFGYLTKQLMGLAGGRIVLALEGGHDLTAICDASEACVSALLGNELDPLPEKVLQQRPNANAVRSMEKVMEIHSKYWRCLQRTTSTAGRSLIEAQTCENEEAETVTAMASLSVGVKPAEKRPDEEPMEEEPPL
measurement-kind: pIC50
A value of pIC50 is the negative decimal logarithm of a concentration given in moles per litre.

Enquiry: Please state recorded pIC50 (tested on HDAC4 (Homo sapiens, UniProt P56524)) of CC1CN(Cc2ccc(Nc3nccc(-c4ccc(C(=O)NO)cc4)n3)cc2F)CCO1 (racemic)
Return: 4.96

* * *

Target: UniProt Q9BY41
Sequence (Q9BY41 1-377): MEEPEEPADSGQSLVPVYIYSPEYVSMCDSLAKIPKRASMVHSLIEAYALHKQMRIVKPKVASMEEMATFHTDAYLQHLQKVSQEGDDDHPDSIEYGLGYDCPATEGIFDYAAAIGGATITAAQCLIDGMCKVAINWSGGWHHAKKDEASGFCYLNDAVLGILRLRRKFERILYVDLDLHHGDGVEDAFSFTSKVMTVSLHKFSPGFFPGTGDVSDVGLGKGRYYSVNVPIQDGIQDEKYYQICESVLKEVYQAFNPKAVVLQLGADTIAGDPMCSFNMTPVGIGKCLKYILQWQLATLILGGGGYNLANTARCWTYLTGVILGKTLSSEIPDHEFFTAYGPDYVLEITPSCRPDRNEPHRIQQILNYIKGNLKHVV
Known IC50 of a selection of molecules
Report as a plain number; the unit nM is understood.

molecule: CC1CN(Cc2ccc(Nc3nccc(-c4ccc(C(=O)NO)cc4)n3)cc2F)CCO1 (racemic)
measurement-kind: IC50
u: nM
value-observed: 102

Turning to the following molecule.
Enquiry: Bench note: what IC50 did CC1CN(C(=O)c2ccc(Nc3nccc(-c4ccc(C(=O)NO)cc4)n3)cc2F)CCO1 (centres unmarked) show?
Return: 162

* * *

Experiment: Oral bioavailability and brain/CSF uptake study of compound I-8
Type: in vivo, male Swiss albino mice
Conditions: male, Swiss albino; G2, oral 5 mg/kg, mouse plasma
measurement-kind: Cmax
The reply should read as a number followed by its unit.

Enquiry: Bench note: what Cmax did CC1CN(Cc2ccc(Nc3nccc(-c4ccc(C(=O)NO)cc4)n3)cc2F)CCO1 (racemic) [Compound I-8] show?
Return: 18.3 ng/mL

* * *

Assay: Oral bioavailability and brain/CSF uptake study of compound I-8
Type: in vivo, male Swiss albino mice
Conditions: male, Swiss albino, mouse, plasma; G2, oral 5 mg/kg
measurement-kind: MRT (h)
Report as a plain number; the unit h is understood.

Enquiry: Bench note: what MRT did CC1CN(Cc2ccc(Nc3nccc(-c4ccc(C(=O)NO)cc4)n3)cc2F)CCO1 (racemic) show?
Return: 4.75

* * *

Target: HDAC6 (Homo sapiens, UniProt Q9UBN7)
Test: Biochemical HDAC6 inhibitory activity assay
Settings: 10-dose in vitro test (FIG. 1)
measurement-kind: pEC50
A value of pEC50 is the negative decimal logarithm of a concentration given in moles per litre.

Enquiry: Bench note: what pEC50 did CC1CN(Cc2ccc(Nc3nccc(-c4ccc(C(=O)NO)cc4)n3)cc2F)CCO1 (racemic) show?
Return: 8.14

* * *

Target: HDAC10 (Homo sapiens, UniProt Q969S8)
Sequence (Q969S8 whole entry, species assumed): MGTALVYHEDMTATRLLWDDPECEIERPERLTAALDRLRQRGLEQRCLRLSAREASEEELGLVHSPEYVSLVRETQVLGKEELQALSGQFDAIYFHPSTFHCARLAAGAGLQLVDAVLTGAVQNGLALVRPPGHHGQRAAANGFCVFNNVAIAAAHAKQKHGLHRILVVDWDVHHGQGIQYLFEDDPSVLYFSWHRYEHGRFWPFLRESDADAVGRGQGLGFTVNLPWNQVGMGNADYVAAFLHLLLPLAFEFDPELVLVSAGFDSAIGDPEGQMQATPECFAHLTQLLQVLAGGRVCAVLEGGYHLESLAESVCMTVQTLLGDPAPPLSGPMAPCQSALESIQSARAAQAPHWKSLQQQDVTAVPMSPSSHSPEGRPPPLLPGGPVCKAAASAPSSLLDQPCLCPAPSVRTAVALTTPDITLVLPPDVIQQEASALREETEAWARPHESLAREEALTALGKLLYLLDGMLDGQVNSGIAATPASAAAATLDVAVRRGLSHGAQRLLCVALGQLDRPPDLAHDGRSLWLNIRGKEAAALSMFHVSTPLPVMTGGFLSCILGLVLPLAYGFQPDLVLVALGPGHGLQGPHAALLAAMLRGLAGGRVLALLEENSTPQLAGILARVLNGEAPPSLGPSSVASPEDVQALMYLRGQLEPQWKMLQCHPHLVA
measurement-kind: IC50 (nM)
Report as a plain number; the unit nM is understood.

compound: CC1CN(C(=O)c2ccc(Nc3nccc(-c4ccc(C(=O)NO)cc4)n3)cc2F)CCO1 (stereo not drawn)
value-observed: 73.7

Enquiry: Bench note: what IC50 did CC1CN(Cc2ccc(Nc3nccc(-c4ccc(C(=O)NO)cc4)n3)cc2F)CCO1 (racemic) show?
Return: 9.15

Enquiry: Bench note: what IC50 did Cn1cc(CNCC2CCN(c3ncc(C(=O)NO)cn3)CC2)c2ccccc21 [Quisinostat, reference compound] show?
Return: 8.37

* * *

Assay: Tg2576 study: bioanalysis
Type: in vivo, mice
Conditions: male, mouse, plasma, oral; G3 Tg2576 mice, end of experiment; 8 hr post dose; read-out: Plasma Concentrations
Text: At termination, animals were given a final dose, and under mild anesthesia, blood was collected retro-orbitally and separated plasma were utilized for bio analysis (G3) and ex vivo analysis. Then animals were euthanized under CO2 asphyxiation and brain tissue was collected and divided into two equal hemispheres. One hemisphere was fixed in 10% NBF for immunohistochemistry and from another hemisphere, dissected cortex and hippocampus was utilized for ex vivo analysis. […]
measurement-kind: concentration at 8 h (ng/mL)
Report as a plain number; the unit ng/mL is understood.

Enquiry: Bench note: what concentration at 8 h did C[C@@H]1CN(Cc2ccc(Nc3nccc(-c4ccc(C(=O)NO)cc4)n3)cc2F)CCO1 show?
Return: 12.1

* * *

Experiment: Oral bioavailability and brain/CSF uptake study of compound I-8
Type: in vivo, male Swiss albino mice
Settings: male, Swiss albino, mouse, plasma; G2, oral 5 mg/kg vs intravenous 1 mg/kg; read-out: % F (oral bioavailability)
measurement-kind: bioavailability

Enquiry: Bench note: what bioavailability did CC1CN(Cc2ccc(Nc3nccc(-c4ccc(C(=O)NO)cc4)n3)cc2F)CCO1 (racemic) show?
Return: 53%

* * *

Target: HDAC11 (Homo sapiens, UniProt Q96DB2)
Sequence (Q96DB2 1-347): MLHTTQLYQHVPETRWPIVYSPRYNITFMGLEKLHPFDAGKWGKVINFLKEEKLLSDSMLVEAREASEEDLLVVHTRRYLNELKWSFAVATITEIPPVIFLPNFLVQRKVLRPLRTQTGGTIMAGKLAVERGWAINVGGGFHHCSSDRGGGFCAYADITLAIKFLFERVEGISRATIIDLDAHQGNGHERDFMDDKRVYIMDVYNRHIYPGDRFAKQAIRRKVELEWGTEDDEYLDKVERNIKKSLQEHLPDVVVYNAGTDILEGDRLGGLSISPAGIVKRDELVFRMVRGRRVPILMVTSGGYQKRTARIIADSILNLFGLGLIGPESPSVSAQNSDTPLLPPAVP
measurement-kind: pIC50
A value of pIC50 is the negative decimal logarithm of a concentration given in moles per litre.

compound: CC1CN(C(=O)c2ccc(Nc3nccc(-c4ccc(C(=O)NO)cc4)n3)cc2F)CCO1 (centres unmarked) [Compound I-5]
pIC50: 6.11

Turning to the following compound.
Enquiry: Bench note: what pIC50 did CC1CN(Cc2ccc(Nc3nccc(-c4ccc(C(=O)NO)cc4)n3)cc2F)CCO1 (racemic) [Compound I-8] show?
Return: 6.38

* * *

Molecular target: HDAC3 (Homo sapiens)
Sequence (O15379 whole entry, species assumed): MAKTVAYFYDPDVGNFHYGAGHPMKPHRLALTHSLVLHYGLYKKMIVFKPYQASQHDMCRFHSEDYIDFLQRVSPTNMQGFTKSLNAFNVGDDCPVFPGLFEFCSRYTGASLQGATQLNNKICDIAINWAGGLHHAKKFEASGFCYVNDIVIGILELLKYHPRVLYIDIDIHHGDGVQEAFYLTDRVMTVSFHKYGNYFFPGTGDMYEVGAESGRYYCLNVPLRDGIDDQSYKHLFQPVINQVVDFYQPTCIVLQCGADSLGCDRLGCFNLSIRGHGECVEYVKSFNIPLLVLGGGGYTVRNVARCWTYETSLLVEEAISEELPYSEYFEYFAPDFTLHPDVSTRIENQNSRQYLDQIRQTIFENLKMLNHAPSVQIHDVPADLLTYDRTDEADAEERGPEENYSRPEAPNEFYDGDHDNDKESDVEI
Sequence (Q9Y618 395-489 partner limits assumed, species assumed): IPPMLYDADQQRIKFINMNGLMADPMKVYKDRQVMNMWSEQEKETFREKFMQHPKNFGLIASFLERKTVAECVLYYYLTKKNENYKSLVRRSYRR
measurement-kind: IC50 (nM)
Report as a plain number; the unit nM is understood.

Enquiry: Bench note: what IC50 did CC1CN(Cc2ccc(Nc3nccc(-c4ccc(C(=O)NO)cc4)n3)cc2F)CCO1 (racemic) show?
Return: 990

* * *

Assay: Tg2576 study: bioanalysis
Assay type: in vivo, mice
Settings: male, mouse, plasma, oral; G3 Tg2576 mice, end of experiment; 4 hr post dose; read-out: Plasma Concentrations
measurement-kind: concentration at 4 h (ng/mL)
Report as a plain number; the unit ng/mL is understood.

Enquiry: Bench note: what concentration at 4 h did C[C@@H]1CN(Cc2ccc(Nc3nccc(-c4ccc(C(=O)NO)cc4)n3)cc2F)CCO1 [Compound I-16] show?
Return: 32.6

* * *

Target: HDAC6 (Homo sapiens, UniProt Q9UBN7)
Sequence (Q9UBN7 1-1215): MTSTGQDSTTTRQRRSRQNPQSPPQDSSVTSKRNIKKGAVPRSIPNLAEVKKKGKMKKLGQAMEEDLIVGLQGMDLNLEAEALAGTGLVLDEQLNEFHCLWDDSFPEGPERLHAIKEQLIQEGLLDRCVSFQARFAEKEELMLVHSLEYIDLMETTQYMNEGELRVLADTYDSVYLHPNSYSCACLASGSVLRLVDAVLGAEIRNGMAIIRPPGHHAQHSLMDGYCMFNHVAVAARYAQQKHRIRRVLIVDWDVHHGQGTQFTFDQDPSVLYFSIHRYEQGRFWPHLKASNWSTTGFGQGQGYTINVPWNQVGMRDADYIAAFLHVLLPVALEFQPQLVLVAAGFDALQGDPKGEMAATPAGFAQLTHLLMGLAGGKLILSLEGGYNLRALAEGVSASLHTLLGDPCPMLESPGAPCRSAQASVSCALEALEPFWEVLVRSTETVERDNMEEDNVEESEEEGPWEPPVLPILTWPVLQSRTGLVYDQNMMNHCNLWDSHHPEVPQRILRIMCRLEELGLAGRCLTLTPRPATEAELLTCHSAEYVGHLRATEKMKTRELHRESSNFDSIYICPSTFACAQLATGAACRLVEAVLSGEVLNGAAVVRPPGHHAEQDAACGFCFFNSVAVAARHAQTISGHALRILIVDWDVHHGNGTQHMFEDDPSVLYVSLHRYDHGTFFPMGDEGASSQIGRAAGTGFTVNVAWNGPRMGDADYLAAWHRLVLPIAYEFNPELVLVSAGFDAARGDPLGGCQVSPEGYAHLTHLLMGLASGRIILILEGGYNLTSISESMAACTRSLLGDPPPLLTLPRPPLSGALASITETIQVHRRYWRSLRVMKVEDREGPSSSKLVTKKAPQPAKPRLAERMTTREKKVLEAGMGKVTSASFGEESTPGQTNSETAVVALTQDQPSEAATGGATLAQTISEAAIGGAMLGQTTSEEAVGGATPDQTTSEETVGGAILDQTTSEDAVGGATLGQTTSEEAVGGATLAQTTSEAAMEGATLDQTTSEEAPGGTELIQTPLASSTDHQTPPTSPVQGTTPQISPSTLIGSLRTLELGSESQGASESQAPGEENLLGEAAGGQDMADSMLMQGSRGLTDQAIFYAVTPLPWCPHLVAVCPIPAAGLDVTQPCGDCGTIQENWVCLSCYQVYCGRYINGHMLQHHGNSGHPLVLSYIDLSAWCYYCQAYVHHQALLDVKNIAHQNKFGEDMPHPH
Assay: Biochemical HDAC6 inhibitory activity assay
Conditions: read-out: HDAC6 IC50
pIC50: −log10 of the molar value.
Known pIC50 of a selection of molecules

// worked examples, pIC50 included
molecule: O=C(NO)c1ccc(-c2ccnc(Nc3ccc(CN4CCN(C5COC5)CC4)c(F)c3)n2)cc1
measured-target: HDAC6 (Homo sapiens, UniProt Q9UBN7)
value-observed: > 6.00
//
molecule: CC1CN(CC(=O)Nc2nccc(-c3ccc(C(=O)NO)cc3)n2)CCO1 (centres unmarked)
measured-target: HDAC6 (Homo sapiens, UniProt Q9UBN7)
value-observed: > 6.00
//
molecule: C[C@@H]1CN(Cc2ccc(Nc3nccc(-c4ccc(-c5nnc(C(F)F)o5)cn4)n3)cc2F)CCO1
measured-target: HDAC6 (Homo sapiens, UniProt Q9UBN7)
value-observed: 4.46 to 5.00

Enquiry: Bench note: what pIC50 did CC1CN(C(=O)c2ccc(Nc3nccc(-c4ccc(C(=O)NO)cc4)n3)cc2F)CCO1 (centres unmarked) show?
Return: > 6.00

Enquiry: Bench note: what pIC50 did C[C@H]1CN(Cc2ccc(Nc3nccc(-c4ccc(-c5nnc(C(F)F)o5)cc4F)n3)cc2F)CCO1 show?
Return: > 6.00
